From: PubChem BioAssay (Tox21)

- SYSTEM UNDER TEST: 5-hydroxytryptamine receptor 2A (Homo sapiens) (UniProt P28223)
- Sequence (P28223 whole entry, looked up): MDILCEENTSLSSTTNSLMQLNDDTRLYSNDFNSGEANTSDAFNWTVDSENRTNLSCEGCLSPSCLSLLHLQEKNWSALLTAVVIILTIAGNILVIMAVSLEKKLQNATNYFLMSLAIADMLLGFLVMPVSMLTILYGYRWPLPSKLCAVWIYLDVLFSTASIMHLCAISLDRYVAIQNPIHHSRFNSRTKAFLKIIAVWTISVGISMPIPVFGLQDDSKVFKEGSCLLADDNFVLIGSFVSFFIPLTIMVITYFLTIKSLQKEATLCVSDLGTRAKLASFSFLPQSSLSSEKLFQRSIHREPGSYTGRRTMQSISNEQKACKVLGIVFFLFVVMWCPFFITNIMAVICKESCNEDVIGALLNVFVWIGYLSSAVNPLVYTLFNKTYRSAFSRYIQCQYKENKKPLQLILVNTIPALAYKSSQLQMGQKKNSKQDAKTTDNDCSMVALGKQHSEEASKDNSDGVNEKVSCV
- PROTOCOL: 5-hydroxytryptamine receptor 2A (HTR2A) small molecule antagonists, cell-based qHTS assay (AID 1963586); also: nearly all actives have a fitted effect of over 45% in size
- EXPERIMENTAL PARAMETERS: HTR2A-CHO cells, DOI-induced calcium flux, fluorescence; series mostly up to 61.5 µM
Records with an inconclusive call do not appear. The source made the active and inactive calls. Calls follow the shape of the full dose curve.
Labels: t = active, f = inactive

* O=C(OCCCCCOC(=O)c1ccccc1)c1ccccc1 | f
* C=C/C(C)=C/C/C=C(\C)CCC=C(C)C | f
* CC(=O)O[C@@H]1C(=O)O[C@@H]2[C@H]1OC(=O)[C@@H]2OC(C)=O | f
* CN(C)CCCOC1(Cc2ccccc2)CCCCCC1 | t
* CCCCC(CC)COC(=O)CC#N (configuration not stated) | f
* c1cc2c3c(c1)ccc1cccc(c13)C2 | f
* Cc1ccc(O)cn1 | f

----------
- PROTOCOL: p53 small molecule agonists, cell-based qHTS assay with rat liver microsomes (AID 1963578); also: % is scaled to controls: 0 for no effect and ±100 for the full control effect
- EXPERIMENTAL PARAMETERS: HCT-116 p53RE-bla, beta-lactamase ratio, 16 h; series mostly up to 66 µM
- Source text: U.S. Tox21 Program National Center for Advancing Translational Sciences [NCATS] Division of Preclinical Innovation [DPI] U.S. Environmental Protection Agency [EPA] National Institutes of Environmental Health Sciences [NIEHS] National Toxicology Program [NTP] U.S. Food and Drug Administration [FDA] […] The activation of the reporter gene under culture conditions can be detected by fluorescence intensity. […]
Records with an inconclusive call do not appear. The source made the active and inactive calls. Calls come from the whole dose curve.
MEASURED QUANTITY: activation

• CC1=C(CC=O)C(C)(C)CCC1 = inactive
• N#C/C(=C1\SCC(c2ccccc2Cl)S1)n1ccnc1 (configuration not stated) = inactive
• Nc1ccc(S(=O)(=O)Nc2ccnn2-c2ccccc2)cc1 = 0.115% [at 13.6 µM] (inactive)
• CCOC(=O)[C@H](CCc1ccccc1)N[C@H]1CS[C@H](c2cccs2)CN(CC(=O)O)C1=O = inactive
• FC(F)(F)c1ccc(Cl)cc1Cl = inactive
• CN1C[C@@H]2C[C@H]1CN2c1cc2c(cc1F)c(=O)c(C(=O)O)cn2C1CC1 = 1.2% [at 13.6 µM] (inactive)
• NC(=O)N(O)[C@@H]1C=C[C@H](Oc2cccc(Oc3ccc(F)cc3)c2)C1 = inactive
• C[N+](C)(C)CCOC(=O)CCC(=O)OCC[N+](C)(C)C = inactive
• CNCc1ccccc1 = inactive
• Cc1[nH]cnc1CN1CCc2c(c3ccccc3n2C)C1=O = inactive
• CN1CC(=O)NC1=N = inactive
• COC(=O)C1=C(C)NC(C)=C(C(=O)OC(C)(C)CN(C)CCC(c2ccccc2)c2ccccc2)C1c1cccc([N+](=O)[O-])c1 (configuration not stated) = inactive

----------
- PROTOCOL: Nuclear factor erythroid 2-related factor 2/antioxidant responsive element (Nrf2/ARE) small molecule agonists: luciferase reporter gene qHTS assay in human keratinocytes (AID 1919969); also: nearly all actives have a fitted effect of over 35% in size
- EXPERIMENTAL PARAMETERS: KeratinoSens HaCaT ARE-luciferase, luminescence, 24 h; series mostly up to 92.4 µM
Records with an inconclusive call do not appear. Active and inactive are the calls of the source. Calls come from the whole dose curve.
Labels: active, inactive

- CCCCCCCCCCc1ccccc1: inactive
- CCC=O: inactive
- CC(C)C[P+](C)(CC(C)C)CC(C)C: inactive
- O=C1[C@H]2CCCC[C@H]2C(=O)N1CCCCN1CCN(c2nsc3ccccc23)CC1: inactive
- CCC1CCC(CCC(=O)O)C1 (stereo not given): inactive
- CO[Si](CCCn1c(=O)n(CCC[Si](OC)(OC)OC)c(=O)n(CCC[Si](OC)(OC)OC)c1=O)(OC)OC: inactive
- CCC(=O)O[C@]1(C(=O)SCF)[C@H](C)C[C@H]2[C@@H]3C[C@H](F)C4=CC(=O)C=C[C@]4(C)[C@@]3(F)[C@@H](O)C[C@@]21C: inactive
- NC1[C@H]2CN(c3nc4c(cc3F)c(=O)c(C(=O)O)cn4-c3ccc(F)cc3F)C[C@@H]12 (stereo not given in full): inactive
- O=C(O)c1ccc(Cl)c(Cl)c1: inactive
- CN(C)c1ccc(CCO)cc1: active
- CC(C(=O)O)c1ccc(/C=C2\CCCCC2=O)cc1 (stereo not given): active
- SC1CCCCC1: inactive
- CC(CC(C)(C)C)CC(C)(C)CC(C)(C)C (stereo not given): inactive
- CCCCC(CC)COC(=O)c1ccccc1O (stereo not given): inactive
- C=C1CC[C@H](O)C/C1=C\C=C1/CCC[C@]2(C)[C@@H]([C@H](C)CCCC(C)C)CC[C@@H]12: active
- c1cc2c3c(c1)ccc1cccc(c13)C2: inactive
- COc1ccc(OC)c(N=Nc2c(O)ccc3ccccc23)c1: active
- O=S(=O)(O)CCO: inactive
- Nc1ccc(C(=O)N2CC3CC(CN(Cc4ccccc4)C3)C2)cc1: inactive
- NC(=O)c1ccncc1: inactive
- O=S(=O)(O)c1ccc(N=Nc2c(O)ccc3ccccc23)cc1: inactive
- CC1CCc2cc(F)cc3c(=O)c(C(=O)O)cn1c23 (stereo not given): inactive
- Nc1ccccc1S(=O)(=O)c1ccccc1: inactive
- CCCCCCCCCOC(=O)c1ccccc1C(=O)OCCCCCCCCC: inactive
- Cc1c(N)cccc1Cl: inactive
- CC(=O)Nc1ccc(N)cc1: inactive
- C=C1CC[C@H]2O[C@]2(C)CC[C@@H]2[C@@H]1CC2(C)C: inactive
- c1ccc(COCc2ccccc2)cc1: inactive
- O=C(OOC(=O)c1ccccc1)c1ccccc1: inactive
- CCCCCCC(CCCCCCCCCCC(=O)OCC(COC(C)=O)OC(C)=O)OC(C)=O (stereo not given): inactive
- Nc1cccc(S(=O)(=O)c2cccc(N)c2)c1: inactive
- C=CC(OCC)OCC: inactive
- O=Cc1c2ccccc2c(Cl)c2ccccc12: active
- O=C(O)C1CCC1: inactive
- OCC(CO)n1cnc(-c2ccc(F)cc2)c1-c1ccnc(Oc2ccccc2)n1: inactive
- OC(CCCN1CCCCC1)(c1ccccc1)c1ccccc1: inactive
- OC[C@@H](O)[C@H](O)[C@@H](O)[C@@H](O)CO: inactive
- Oc1ccc(Oc2ccccc2)cc1: inactive
- NC(=O)c1ccccc1[N+](=O)[O-]: inactive
- CC(C)OC(=O)C(C)N(C(=O)c1ccccc1)c1ccc(F)c(Cl)c1 (stereo not given): inactive
- CC12CCCC=C1C(=O)OC2=O (stereo not given): inactive
- CCOC(=O)C(=O)CCCCCCl: inactive
- NNc1nnc(NN)c2ccccc12: inactive
- CCOC(=O)CC(C)O (stereo not given): inactive
- CCCCCCCCCCCCCCBr: inactive
- Nc1ccc2cc(S(=O)(=O)O)cc(O)c2c1: inactive
- O=C1CCCCO1: inactive
- CN1CCCN=C1COC(=O)C(O)(c1ccccc1)C1CCCCC1 (stereo not given): inactive
- CC(CCc1ccccc1)NCC(O)c1ccc(O)c(C(N)=O)c1 (stereo not given): inactive
- O=C1c2ccccc2C(=O)C1c1ccccc1: inactive
- CC(C)=CC1CC(C)CCO1 (stereo not given): inactive
- S=c1[nH][nH]c(=S)s1: inactive
- CCN(CC)CCOCCOC(=O)C1(c2ccccc2)CCCC1: inactive
- CCCCC/C=C/CC1CC(=O)OC1=O (stereo not given): inactive
- COC(=O)C(C)(C)C: inactive
